# target.of.assay: JAK3 JH1 (Homo sapiens, UniProt P52333)
# Construct: 5 μL/well of 2×JAK1 JH1/JAK2 JH1/JAK3 JH1/TYK2 JH1 kinase solutions
# Sequence (P52333 822-1111 limits assumed): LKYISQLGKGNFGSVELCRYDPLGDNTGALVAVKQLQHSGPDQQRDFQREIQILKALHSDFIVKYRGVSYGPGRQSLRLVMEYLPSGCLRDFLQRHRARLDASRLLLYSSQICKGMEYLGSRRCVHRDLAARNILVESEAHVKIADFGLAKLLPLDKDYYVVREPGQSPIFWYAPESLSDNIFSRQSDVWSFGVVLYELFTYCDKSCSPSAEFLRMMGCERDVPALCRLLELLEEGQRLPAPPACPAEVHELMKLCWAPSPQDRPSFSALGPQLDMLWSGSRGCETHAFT
# procedure.details: JAK3 JH1 kinase inhibition (HTRF)
# Format: biochemical
# conditions: read-out: Inhibition on kinase activity (IC50, μM) JAK3 JHI
Quick reference: IC50 of the listed items.

>>> test_result("CCONC(=O)c1nnc(NC(=O)C2CC2)cc1Nc1cccc(-c2ncn(CCOC)n2)c1OC")
"> 10 µM"

Note: attention shifts to another entry.
Result for `CCONC(=O)c1nnc(NC(=O)C2CC2)cc1Nc1cccc(-c2nc[nH]n2)c1OC` , tested on JAK3 JH1 (Homo sapiens, UniProt P52333), IC50: > 10 µM
